I'd appreciate it if you could supply IC50 values for the items below.
System: MOLM14 cells
Experiment: Proliferation assay, spheroid-like growth, MOLM14 (MLL-AF9 rearranged)
Format: cell-based, human
Settings: Homo sapiens, MOLM-14, 192 h, 8 days, confluence as measure of spheroid size, read-out: spheroid assay_OneTime MOLM14 IC50
Give bare numbers, in nM.

// for each compound below, give its IC50
1. CC(=O)N[C@@H]1CCN([C@H]2C[C@@H]([C@H](C(C)C)N3CC4(CCN(c5ncnnc5Oc5ccc(F)cc5-c5cnc(C)nc5C5CC5)C4)C3)C2)C1 [Compound 389]
2. CC(C)[C@H]([C@H]1C[C@@H](N2CC3(CNC(=O)O3)C2)C1)N1CC2(CCN(c3ncnnc3Oc3ccc(F)cc3-c3cncnc3C3CC3)C2)C1 (single isomer, unassigned) [Compound 317]
3. CC(C)[C@@H]([C@H]1C[C@H](N2CCC2)C1)N1CC2(CCN(c3ncnnc3Oc3ccc(F)cc3-c3cncnc3C3CC3)C2)C1 (single isomer, unassigned) [Compound 346]

Output:
[2, 60, 700]
